system: SK-MEL-2 melanoma
Listing of entries alongside the reported GI50.

Recorded results for 3 molecules are shown here.
O=C1Nc2ccccc2/C1=C\c1cccc(/C=C2/C(=O)Nc3ccccc32)n1 | 0.631 µM
O=P(O)(O)OCC1OC(n2cnc3c(NCc4ccco4)ncnc32)C(O)C1O (centres undefined) | 11.1 µM
COc1ccc(N2C(=O)/C(=C/C(Cl)=C/c3ccc([N+](=O)[O-])cc3)SC2=S)cc1 | > 21.3 µM

Exercise: # query: GI50 of entry Cn1cc(-c2nc(-c3c[nH]c4ccncc34)cs2)c2ccccc21
Key: 1.8 µM

* * *

tested on: KM12 colon; test: NCI tumour cell line growth inhibition, 48 h
Listing of entries alongside the reported TGI.
Please respond with the number in µM and leave the unit unwritten.

COc1ccc(C(=O)c2c(-c3ccccc3NC(=O)C(F)(F)F)[nH]c3ccccc23)cc1 | 21.8

Consider now this further compound.
Exercise: # query: TGI of entry CN(C)C[C@H]1CCn2c(c(C3=C(c4cn(C)c5ccccc45)C(=O)NC3=O)c3ccccc32)C1
Key: 8.66

* * *

test system: UACC-62 melanoma; test: NCI tumour cell line growth inhibition, 48 h
Use y when the recorded TGI is no lower than 20 µM; use n when it is lower.

C[C@]12C(=O)C=CCC1=CC[C@@H]1[C@@H]2[C@H]2CC3(O)C(=O)O[C@@]4(C)[C@H]5C[C@@]6(C)[C@@H]7[C@@]2(O)[C@]1(OC[C@H]6C(=O)O5)O[C@]734 (stereo not given in full) | y

Exercise: // inclusive: TGI at least 20 µM? input: COc1cc(NS(C)(=O)=O)ccc1NCc1cnc2ccc3[nH]cccc3c12
Key: y

Exercise: Another compound to look at: COc1cc2c(c(O)c1C)C(=O)CC(c1ccccc1)O2 (stereo not given)
Key: y

Exercise: Another compound to look at: N#CNC(=NCc1ccccc1)NCCc1c[nH]c2ccccc12
Key: y

Exercise: Another compound to look at: C=C1C(=O)O[C@H]2[C@H]1CC/C(COC(=O)c1cn(C)c3ccccc13)=C\CC[C@@]1(C)O[C@@H]21
Key: n

Exercise: Another compound to look at: Clc1ccccc1[C@@H]1C[C@@H]2Cc3cc(Br)c4ccccc4c3N1O2
Key: y

Exercise: Another compound to look at: CCOP(=O)(OCC)/C(C#N)=C\c1ccsc1
Key: y

Exercise: Another compound to look at: C=CCNc1nc(O)c(/C=C2\C=Nc3ncccc32)s1
Key: n

Exercise: Another compound to look at: C/C(=N/NC(=S)N(C)C)c1ccccc1O
Key: y

* * *

test system: UACC-257 melanoma; test: NCI tumour cell line growth inhibition, 48 h
measurement label: TGI

Recorded results for 6 molecules are shown here.
Nc1ncnc2c1sc(=S)n2-c1ccccc1 | > 100 µM
COc1ccc(N2C(=O)/C(=C/C(Cl)=C/c3ccc([N+](=O)[O-])cc3)SC2=S)cc1 | > 100 µM
O=C(CNc1nccs1)Nn1cnc2ccc(S(=O)(=O)Nc3nccs3)cc2c1=O | > 100 µM
COc1ccc(C2S/C(=C\c3cccc(OC)c3)C(=O)N2NC(=O)Cc2ccccc2)cc1 (stereo not given) | > 100 µM
CC(N)Cc1ccc(Cl)cc1 (stereo not given) | > 100 µM
C=CC(C)(C)C1(CC(OC)OC)C(=O)N(C)c2ccccc21 (stereo not given) | > 25 µM

Exercise: Record lookup: for UACC-257 melanoma, what TGI belongs to CCO/C(CCn1[nH]c(=O)c(Cl)c(Cl)c1=O)=N\NC(=O)C(=O)NN ?
Key: > 100 µM

Exercise: Another molecule to look at: COc1cc(S(=O)(=O)Nc2ccc(-c3csc(N4C(=O)C(Cl)C4c4cccc(Oc5ccccc5)c4)n3)cc2)ccc1Cl (stereo not given)
Key: > 100 µM

Exercise: Another molecule to look at: Cn1c(=O)c2c(nc3n2CCC(=O)N3CCCCl)n(C)c1=O
Key: > 100 µM

Exercise: Another molecule to look at: CNC(=O)c1cc2nc3ccccc3c(=O)n2c2ccccc12
Key: > 10 µM

* * *

test system: NCI-H23 lung; assay: NCI tumour cell line growth inhibition, 48 h
Use 1 when the recorded TGI is no lower than 40 µM; use 0 when it is lower.

Worked examples follow.
CCCCC(=C=C(C)CO)C1CCCN1C(=O)OC(C)(C)C (stereo not drawn) | 1
C[C@]12C(=O)C=CCC1=CC[C@@H]1[C@@H]2[C@H]2CC3(O)C(=O)O[C@@]4(C)[C@H]5C[C@@]6(C)[C@@H]7[C@@]2(O)[C@]1(OC[C@H]6C(=O)O5)O[C@]734 (stereo partly drawn) | 1
O=C(O)C(Br)C(Br)C(=O)O (stereo not drawn) | 1
C=CCOC(=O)c1c(C)n([O-])c2cc(Cl)c(Cl)cc2[n+]1=O | 0

Exercise: // inclusive: TGI at least 40 µM? input: CCCCCCCCCCCC[N+](C)(C)Cc1ccccc1
Key: 0

Exercise: Another compound to look at: O=C(OCC1CCCN2CCCCC12)c1cccnc1 (stereo not drawn)
Key: 1

Exercise: Another compound to look at: COc1ccc2c3c(c(C(=O)O)oc13)CCC2
Key: 1

Exercise: Another compound to look at: O=c1cc(-c2ccccc2)oc2ccc(OC/C(=N/O)c3ccc(F)cc3)cc12
Key: 0

Exercise: Another compound to look at: Cc1c(OCCCOc2ccc3c(=O)cc(-c4ccccc4)oc3c2C)ccc2c(=O)cc(-c3ccccc3)oc12
Key: 1

Exercise: Another compound to look at: O=c1c(Nc2ccccc2)cn(CCOc2ccc(Cl)cc2)c(=O)n1CCOc1ccc(Cl)cc1
Key: 1

Exercise: Another compound to look at: O=c1/c(=C/c2c(O)ccc3ccccc23)sc2nc3ccccc3n12
Key: 1

Exercise: Another compound to look at: Cc1ccc(/C(O)=C/c2nc3cccnc3[nH]c2=O)cc1
Key: 1

Exercise: Another compound to look at: Cc1ccc(-c2c(C#N)[n+](=O)c3cc(F)c(F)cc3n2[O-])cc1
Key: 0

* * *

system: A498 renal; test: NCI tumour cell line growth inhibition, 48 h
*1 amine or outer side, *2 acyl side, *3 side chain or, on linkers, in order; H or OH if unused. Where a SMILES comes first, the peptide text is derived from it. Bridges are numbered along the chain shown (N, C = ends). Roman numbers before positions name the chains, in order. [ ]: non-standard residue; d: D form. Actinocin(9to1) = Cc1c2oc3c(C)ccc(C(=O)[*:1])c3nc-2c(C(=O)[*:2])c(N)c1=O; NMeV = CN[CH](C(=O)O)C(C)C; Sar = CNCC(=O)O
measurement label: TGI (µM)
Please respond with the number in µM and leave the unit unwritten.

Recorded results for 4 compounds are shown here.
CN(C)C[C@H]1CCn2c(c(C3=C(c4cn(C)c5ccccc45)C(=O)NC3=O)c3ccccc32)C1 | 9.08
Cc1c2oc3c(C)ccc(C(=O)OC(C)C4NC(=O)C(C(C)C)N(C)C(=O)CN(C)C(=O)C5CCCN5C(=O)C(C(C)C)NC4=O)c3nc-2c(C(=O)OC(C)C2NC(=O)C(C(C)C)N(C)C(=O)CN(C)C(=O)C3CCCN3C(=O)C(C(C)C)NC2=O)c(N)c1=O (configuration not stated) (I: cyclo([Sar][NMeV]TVP) / II: cyclo([Sar][NMeV]TVP); linker I:3-II:3 via Actinocin(9to1); configuration not given here) | 0.0294
CN(C)CCNC(=O)c1cccc2nc3ccc4cccnc4c3nc12 | 0.845
CC(=O)Oc1c2c(c(OC(C)=O)c3c1n(C(C)=O)c1ccccc1n3C(C)=O)n(C(C)=O)c1ccccc1n2C(C)=O | 39

Consider now this further compound.
Exercise: # query: TGI of entry Clc1ccccc1[C@@H]1C[C@@H]2Cc3cc(Br)c4ccccc4c3N1O2
Key: 60.2

* * *

tested on: NCI-H522 lung; experiment: NCI tumour cell line growth inhibition, 48 h
Listing of entries alongside the reported TGI.
Please respond with the number in µM and leave the unit unwritten.

Recorded results for 3 compounds are shown here.
Oc1cc(O)c2c(c1)O[C@H](c1cc(O)c(O)c(O)c1)[C@@H](O)C2 | 35.1
CCOC(=O)CCC(NC(=O)c1ccc(Nc2nc3cc(C(F)(F)F)ccc3nc2C(=O)OCC)cc1)C(=O)OCC (stereo not given) | 42.2
N/C(=N\NC(=O)c1nc2ccccc2s1)c1ccccn1 | 44.6

Exercise: Record lookup: for NCI-H522 lung, what TGI belongs to C=C(C)[C@@H]1CC[C@]2(COCCCNCCCN)CC[C@]3(C)[C@H](CC[C@@H]4[C@@]5(C)CC[C@H](OCCCN)C(C)(C)[C@@H]5CC[C@]43C)[C@@H]12 ?
Key: 1.72

Exercise: Another compound to look at: CCCCCCCCCC(O)CC(=O)c1c(O)cccc1O (stereo not given)
Key: 37.9

Exercise: Another compound to look at: COc1cccc2c1C(=O)c1c(O)c3c(c(O)c1C2=O)C[C@@](O)(C(=O)CN1CCOCC1)C[C@@H]3OC1CC(N)C(O)C(C)O1 (stereo not given in full)
Key: 15.4

Exercise: Another compound to look at: N=c1n(CC(=O)NC23CC4CC(CC(C4)C2)C3)c2ccccc2n1CC(=O)NC12CC3CC(CC(C3)C1)C2
Key: 3.3

Exercise: Another compound to look at: N/C(=N\S(=O)(=O)c1ccc(-c2ccccn2)s1)Nc1ccc(Cl)cc1
Key: 24.4

Exercise: Another compound to look at: Nc1nc2c(c(-c3ccccc3Cl)n1)COC/C2=C\c1ccccc1Cl
Key: 31

Exercise: Another compound to look at: CN(C)C(=S)/N=c1\ssc(=S)n1Cc1cccs1
Key: 9.6

Exercise: Another compound to look at: CN(C)C[C@H]1CCn2c(c(C3=C(c4cn(C)c5ccccc45)C(=O)NC3=O)c3ccccc32)C1
Key: 9.17

Reference for the values: PubChem BioAssay (NCI)
